The origin of these recorded values is patent US20240132431A1.

# assay-system: Bcl-2 protein (Recombinant Human Bcl-2 Protein) (Homo sapiens)
# Construct: purchased Novus NBP2-34889
# assay: Binding evaluation of mixture library compounds to Bcl-2 using AS-MS (affinity selection mass spectrometry)
# assay-setup: n = 2
measured-endpoint: ASMS ratio (%)

See these solved cases before continuing.
1. CCOc1cccc(-c2csc(CN3CCN(c4ccc(C(=O)NS(C)(=O)=O)cc4)CC3)c2)c1 [B2I067-01] ... 0.0
2. CCOc1cccc(-c2ccc(CN3CCN(c4ccc(C(=O)NS(=O)(=O)C(C)(C)C)nn4)CC3)c3ccccc23)c1 [B2L091-01] ... 0.0
3. CCOc1cccc(-c2cc(OC)c(CN3CCN(c4ccc(C(=O)NS(=O)(=O)C(C)(C)C)cc4)CC3)c(OC)c2)c1 [B2L059-01] ... 0.0
4. CCOc1cncc(-c2ccccc2CCC(=O)N2CCN(c3ccc(C(=O)NS(=O)(=O)C(C)(C)C)cc3)CC2)c1 [B2L034-01] ... 3.5
5. CCOc1cncc(-c2ccccc2CN2CCN(c3ccc(C(=O)NS(=O)(=O)CCC(F)(F)F)cc3)CC2)c1 [B2N046-01] ... −1.2

1: CCOc1cncc(-c2csc(CN3CCN(c4ccc(C(=O)NS(=O)(=O)C(C)(C)C)nn4)CC3)c2)c1 [B2L094-01]
2: CCOc1cccc(-c2cc(CN3CCN(c4ccc(C(=O)NS(=O)(=O)c5ccc(NCCSc6ccccc6)c(C(F)(F)F)c5)cc4)CC3)cc(OC(F)(F)F)c2)c1 [B2R063-01]
3: CCOc1cccc(-c2cc(CN3CCN(c4ccc(C(=O)NS(=O)(=O)CCC(F)(F)F)nn4)CC3)cc(OC(F)(F)F)c2)c1 [B2N089-01]
4: CCOc1cncc(-c2ccc(CN3CCN(c4ccc(C(=O)NS(=O)(=O)c5ccc(NCCSc6ccccc6)c(C(F)(F)F)c5)nn4)CC3)cc2C)c1 [B2R074-01]
5: CCOc1cncc(-c2ccc(CN3CCN(c4ccc(C(=O)NS(=O)(=O)c5ccc(NCCSc6ccccc6)c(C(F)(F)F)c5)cc4)CC3)c3ccccc23)c1 [B2R066-01]
Order the items by recorded ASMS ratio (%); the first position goes to the largest value. The labels, placed in the requested order, form the answer.
4, 2, 1, 3, 5
(4: 25.4%, 2: 4.6%, 1: 1.8%, 3: 0.0%, 5: −10.7%)

====

# assay-system: Bcl-2 protein (Recombinant Human Bcl-2 Protein) (Homo sapiens, UniProt P10415)
# Construct: purchased Novus NBP2-34889
# Sequence (P10415 whole entry): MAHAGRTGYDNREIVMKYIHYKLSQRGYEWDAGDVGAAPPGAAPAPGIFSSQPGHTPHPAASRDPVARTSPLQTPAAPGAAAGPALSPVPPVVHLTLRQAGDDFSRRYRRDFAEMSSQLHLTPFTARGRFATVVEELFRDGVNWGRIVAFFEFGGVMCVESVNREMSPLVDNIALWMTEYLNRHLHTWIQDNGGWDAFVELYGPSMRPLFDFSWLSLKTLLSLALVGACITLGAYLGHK
# assay: Binding evaluation of mixture library compounds to Bcl-2 using AS-MS (affinity selection mass spectrometry)
# assay-setup: n = 2
measured-endpoint: ASMS ratio (%)

Example cases with answers are listed next.
1) CCOc1cccc(-c2cc(CN3CCN(c4ccc(C(=O)NS(C)(=O)=O)nn4)CC3)cc(OC(C)C)c2)c1 ... 0.0
2) CCOc1cccc(-c2ccc(C(=O)N3CCN(c4ccc(C(=O)NS(=O)(=O)c5ccc(NCCSc6ccccc6)c(C(F)(F)F)c5)cc4)CC3)c3ccccc23)c1 ... 0.9
3) CCOc1cccc(-c2cnn(-c3cc(C(=O)N4CCN(c5ccc(C(=O)NS(=O)(=O)c6ccc(NCCSc7ccccc7)c(C(F)(F)F)c6)nn5)CC4)cc(C(F)(F)F)c3)c2)c1 ... 0.0
4) CCOc1cncc(-c2cc(OC)c(CN3CCN(c4ccc(C(=O)NS(C)(=O)=O)cc4)CC3)c(OC)c2)c1 ... 0.0
5) CCOc1cccc(-c2ccc(CN3CCN(c4ccc(C(=O)NS(C)(=O)=O)cc4)CC3)c3ccccc23)c1 ... 0.0

1: CCOc1cccc(C#Cc2ccccc2CN2CCN(c3ccc(C(=O)NS(C)(=O)=O)nn3)CC2)c1
2: CCOc1cccc(-c2cc(CN3CCN(c4ccc(C(=O)NS(=O)(=O)C(C)(C)C)nn4)CC3)cc(C(F)(F)F)c2)c1
3: CCOc1cncc(-c2cc(C(=O)N3CCN(c4ccc(C(=O)NS(=O)(=O)c5ccc(NCCSc6ccccc6)c(C(F)(F)F)c5)cc4)CC3)cc(C(C)(C)C)c2)c1
4: CCOc1cncc(-c2ccc(CN3CCN(c4ccc(C(=O)NS(=O)(=O)C(C)(C)C)nn4)CC3)cc2C)c1
List these items ordered by ASMS ratio (%), big to small. Hello, could you send the labels back in the order asked? Thank you.
4, 1, 3, 2
(4: 1.4%, 1: 0.0%, 3: −6.0%, 2: −24.6%)
